molecular target: LXRβ (Homo sapiens, UniProt P55055); construct: Co-transfection expression plasmids, comprising full-length LXRα (pCMX-h LXRα[…] or LXRβ (pCMX-hLXRβ)); expressed in transfected cells; host or cells: CV-1 African Green Monkey Kidney Cells; test: Co-transfection assay (LXRE luciferase reporter), LXRβ; assay type: cell-based; settings: LXRβ co-transfection; relative to high control 1-(2,4-difluorobenzyl)-2-oxo-6-(4-phenoxyphenyl)-4-(trifluoromethyl)-1,2-dihydropyridine-3-carbonitrile; read-out: % Efficacy
Sequence (P55055 whole entry): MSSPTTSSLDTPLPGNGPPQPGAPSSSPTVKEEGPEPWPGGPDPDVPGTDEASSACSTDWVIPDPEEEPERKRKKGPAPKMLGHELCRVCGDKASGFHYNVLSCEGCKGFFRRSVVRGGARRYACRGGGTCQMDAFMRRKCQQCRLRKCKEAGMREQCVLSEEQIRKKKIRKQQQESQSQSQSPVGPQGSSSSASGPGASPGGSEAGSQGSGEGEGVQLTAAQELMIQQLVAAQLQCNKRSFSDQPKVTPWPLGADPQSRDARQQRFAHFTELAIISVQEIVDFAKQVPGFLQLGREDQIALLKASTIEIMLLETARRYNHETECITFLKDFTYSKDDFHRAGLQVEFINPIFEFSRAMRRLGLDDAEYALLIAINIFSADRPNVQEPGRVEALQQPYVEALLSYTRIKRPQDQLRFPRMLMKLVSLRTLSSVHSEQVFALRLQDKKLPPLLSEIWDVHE
Sequence (P19793 whole entry partner): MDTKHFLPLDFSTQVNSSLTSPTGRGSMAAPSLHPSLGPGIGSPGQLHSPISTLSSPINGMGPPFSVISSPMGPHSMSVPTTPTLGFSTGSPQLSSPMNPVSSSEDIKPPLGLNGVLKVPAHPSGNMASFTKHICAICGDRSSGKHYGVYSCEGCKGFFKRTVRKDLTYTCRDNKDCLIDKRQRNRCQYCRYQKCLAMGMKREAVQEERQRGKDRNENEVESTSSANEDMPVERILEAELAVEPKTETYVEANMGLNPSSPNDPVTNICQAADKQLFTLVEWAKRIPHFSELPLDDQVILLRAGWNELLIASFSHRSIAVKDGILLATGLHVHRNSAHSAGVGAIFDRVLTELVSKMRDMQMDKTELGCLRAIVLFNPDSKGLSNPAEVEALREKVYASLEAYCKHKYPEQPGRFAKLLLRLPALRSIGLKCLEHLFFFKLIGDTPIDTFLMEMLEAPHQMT
READOUT KIND: Emax (%)

# COMPOUND, READOUT KIND, VALUE UNIT, OBSERVED RESULT
measured = [
    ("Cc1nc(-c2cc(-c3cccc(S(C)(=O)=O)c3)ccc2-n2cc(C(F)(F)F)nc2C)c(-c2cccc(Cl)n2)o1", "Emax", "%", 38),
    ("Cc1nc(-c2cc(-c3ccc(C)c(S(C)(=O)=O)c3)ccc2-n2cc(C(F)(F)F)nc2C)c(-c2ccc3c(c2)OC(F)(F)O3)o1", "Emax", "%", 69),
    ("Cc1ccc(C(C)c2cnnn2-c2cc(-c3cc(F)c(CO)c(S(C)(=O)=O)c3)ccc2-n2cc(C(F)(F)F)nc2C)cc1 (stereo not shown)", "Emax", "%", 75),
    ("Cc1ccc(C(C)c2cnnn2-c2cc(-c3cccc(S(=O)(=O)N(C)C)c3)ccc2-n2cc(C(F)(F)F)nc2C)cc1 (stereo not shown)", "Emax", "%", 70),
    ("Cc1nc(C(F)(F)F)cn1-c1ccc(-c2cccc(S(C)(=O)=O)c2)cc1-c1nc(CN(C)C)oc1-c1ccc(OC(F)(F)F)cc1", "Emax", "%", 79),
    ("Cc1nc(-c2cc(-c3cccc(S(C)(=O)=O)c3)ccc2-n2cc(C#N)nc2C)c(-c2ccc3c(c2)OC(F)(F)O3)o1", "Emax", "%", 45),
    ("Cc1nc(C(F)(F)F)cn1-c1ccc(-c2cccc(S(C)(=O)=O)c2)cc1-n1nncc1-c1ccc(OCC(F)(F)F)cc1", "Emax", "%", 90),
    ("Cc1nc(-c2cc(-c3ccc(CCO)c(S(C)(=O)=O)c3)ccc2-n2cc(C(F)(F)F)nc2C)c(-c2ccc(OC(F)(F)F)cc2)o1", "Emax", "%", 102),
    ("Cc1nc(C(F)(F)F)cn1-c1ccc(-c2cc(F)c(CO)c(S(C)(=O)=O)c2)cc1-n1nncc1Cc1ccc(Cl)cc1", "Emax", "%", 72),
    ("Cc1nc(C(F)(F)F)cn1-c1ccc(-c2cccc(S(C)(=O)=O)c2)cc1-c1nc(CC(=O)O)oc1-c1ccc(OC(F)(F)F)cc1", "Emax", "%", 100),
    ("Cc1nc(C(F)(F)F)cn1-c1ccc(-c2cc(F)cc(S(C)(=O)=O)c2)cc1-n1nncc1-c1ccc(OC(F)(F)F)cc1", "Emax", "%", 109),
    ("Cc1nc(C(F)(F)F)c(Cl)n1-c1ccc(-c2cc(F)c(CO)c(S(C)(=O)=O)c2)cc1-c1cnnn1-c1ccc(Cl)cc1", "Emax", "%", 129),
    ("Cc1nc(-c2ccc3c(c2)OC(F)(F)O3)c(-c2cc(-c3ccc(CO)c(S(C)(=O)=O)c3)ccc2-n2cc(C(F)(F)F)nc2C)o1", "Emax", "%", 96),
    ("COCc1c(F)cc(-c2ccc(-n3cc(C(F)(F)F)nc3C)c(-n3nncc3-c3ccc(OC(F)(F)F)cc3)c2)cc1S(C)(=O)=O", "Emax", "%", 111),
    ("Cc1nc(-c2cc(-c3cc(F)cc(S(C)(=O)=O)c3)ccc2-n2cc(C(F)(F)F)nc2C)c(-c2ccc3c(c2)OC(F)(F)O3)o1", "Emax", "%", 73),
    ("Cc1nc(-c2cc(-c3cc(F)c(CO)c(S(C)(=O)=O)c3)ccc2-n2cc(C(F)(F)F)nc2C)c(-c2ccc(F)c(Cl)c2)o1", "Emax", "%", 70),
    ("Cc1cc(-c2cc(-c3cccc(S(C)(=O)=O)c3)ccc2-n2cc(C(F)(F)F)nc2C)n(-c2ccc(OC(F)F)cc2)n1", "Emax", "%", 91),
    ("CCC(F)(F)c1cn(-c2ccc(-c3cc(F)c(CO)c(S(C)(=O)=O)c3)cc2-n2nncc2-c2ccc(OC(F)(F)F)cc2)c(C)n1", "Emax", "%", 81),
    ("Cc1nc(C(F)(F)F)cn1-c1ccc(-c2cccc(C(C)(C)C(N)=O)c2)cc1-n1nncc1Cc1cccc(Cl)c1", "Emax", "%", 98),
    ("CS(=O)(=O)c1cccc(-c2ccc(-n3cc(C(F)(F)F)nc3C(F)F)c(-n3nncc3-c3ccc(OC(F)(F)F)cc3)c2)c1", "Emax", "%", 92),
    ("Cc1nc(C(F)(F)F)cn1-c1c(Cl)cc(-c2cccc(S(C)(=O)=O)c2)cc1-n1nncc1-c1ccc(OC(F)(F)F)cc1", "Emax", "%", 83),
    ("Cc1nc(-c2ccc3c(c2)OC(F)(F)O3)c(-c2cc(-c3cc(Cl)c(CO)c(S(C)(=O)=O)c3)ccc2-n2cc(C(F)(F)F)nc2C)o1", "Emax", "%", 80),
    ("Cc1nc(-c2ccc(OC(F)F)cc2)c(-c2cc(-c3cccc(S(C)(=O)=O)c3)ccc2-n2cc(C(F)(F)F)nc2C)o1", "Emax", "%", 112),
    ("Cc1ccc(-c2oc(C)nc2-c2cc(-c3cc(F)c(CO)c(S(C)(=O)=O)c3)ccc2-n2cc(C(F)(F)F)nc2C)cc1", "Emax", "%", 64),
    ("Cc1nc(-c2cc(-c3cccc(S(C)(=O)=O)c3)ccc2-n2cc(C(F)(F)F)nc2C)c(-c2ccc(OC(CF)CF)c(F)c2)o1", "Emax", "%", 68),
]
